Values from patent US20240158446A1

TESTED SYSTEM: UniProtKB P01116
Sequence (P01116 whole entry): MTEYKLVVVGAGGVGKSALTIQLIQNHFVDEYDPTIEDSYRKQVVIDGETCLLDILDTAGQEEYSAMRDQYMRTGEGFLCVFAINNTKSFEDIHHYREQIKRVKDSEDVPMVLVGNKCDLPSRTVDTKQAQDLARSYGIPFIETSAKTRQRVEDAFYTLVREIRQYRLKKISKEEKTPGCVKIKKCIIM
EXPERIMENT: Binding to KRAS by surface plasmon resonance (SPR), Single Cycle Kinetics
CONDITION CONTEXT: SPR Single Cycle Kinetics, GDP-bound KRAS wild-type protein, 1:1 binding model; read-out: KRAS KD
Where a SMILES comes first, the peptide text is derived from it. Bridges are numbered along the chain shown (N, C = ends). [ ]: non-standard residue; d: D form. hPhe(3-Cl-4-CF3) = N[C@@H](CCc1ccc(C(F)(F)F)c(Cl)c1)C(=O)O; NPrPhe(4-CF3) = CCCN[C@@H](Cc1ccc(C(F)(F)F)cc1)C(=O)O; NMeGly(cPent) = CN[C@H](C(=O)O)C1CCCC1; Hyp = O=C(O)[C@@H]1C[C@@H](O)CN1; NMeD = CN[C@@H](CC(=O)O)C(=O)O; NMeL = CN[C@@H](CC(C)C)C(=O)O; Ac5c = NC1(C(=O)O)CCCC1; NEtG = CCNCC(=O)O; Sar = CNCC(=O)O
RECORDED ENDPOINT: Kd

CC[C@H](C)[C@@H]1NC(=O)[C@H](CC(C)C)N(C)C(=O)C[C@@H](C(=O)N2CCOCC2)N(C)C(=O)[C@H](C2CCCC2)N(C)C(=O)C2(CCCC2)NC(=O)[C@@H]2CCCN2C(=O)[C@H](CCc2cc(F)c(C(F)(F)F)c(F)c2)NC(=O)CN(C)C(=O)[C@H](Cc2ccc(C(F)(F)F)cc2)N2CCCCC[C@@H](C2=O)N(C)C(=O)[C@H](C)NC1=O; 850 nM
CC[C@H](C)[C@@H]1NC(=O)[C@H](CC(C)C)N(C)C(=O)C[C@@H](C(=O)N2CCOCC2)N(C)C(=O)[C@H](C2CCCCC2)N(C)C(=O)C2(CCCC2)NC(=O)[C@@H]2CCCN2C(=O)[C@H](CCc2cc(F)c(C(F)(F)F)c(F)c2)NC(=O)CN(C)C(=O)[C@H](Cc2ccc(C(F)(F)F)cc2)N2CCCCC[C@@H](C2=O)N(C)C(=O)CN(C)C1=O; 10 nM
CCCN1C(=O)CN(C)C(=O)CN(CC)C(=O)[C@H]([C@@H](C)CC)NC(=O)[C@H](CC(C)C)N(C)C(=O)C[C@@H](C(=O)N(C)C)N(C)C(=O)[C@H](C2CCCC2)N(C)C(=O)C2(CCCC2)NC(=O)[C@@H]2C[C@@H](OCC)CN2C(=O)[C@H](CCc2ccc(C(F)(F)F)c(Cl)c2)NC(=O)CN(C)C(=O)[C@@H]1Cc1ccc(C(F)(F)F)cc1 [PP0427] ([NMeL]I[NEtG][Sar][NPrPhe(4-CF3)][Sar][hPhe(3-Cl-4-CF3)][Hyp](Et)[Ac5c][NMeGly(cPent)][NMeD]-NMe2; lactam N-11); 0.11 nM
CCCC[C@H]1C(=O)N[C@@H]([C@@H](C)CC)C(=O)N(C)CC(=O)N(C)[C@H]2C/C=C\CCN(C2=O)[C@@H](Cc2ccc(C)cc2)C(=O)N(C)CC(=O)N[C@@H](CCc2cc(F)c(C(F)(F)F)c(F)c2)C(=O)N2C[C@H](OCC)C[C@H]2C(=O)NC2(CCC2)C(=O)N(C)[C@@H](C2CCCC2)C(=O)N(C)[C@H](C(=O)N(C)CC)CC(=O)N1C; 0.12 nM

INPUT: Note down Kd recorded for CC[C@H](C)[C@@H]1NC(=O)[C@H](CC(C)C)N(C)C(=O)C[C@@H](C(=O)N2CCOCC2)N(C)C(=O)[C@H](C2CCCC2)N(C)C(=O)C(C)(C)NC(=O)[C@@H]2CCCN2C(=O)[C@H](CCc2cc(F)c(C(F)(F)F)c(F)c2)NC(=O)CN(C)C(=O)[C@H](Cc2ccc(C(F)(F)F)cc2)N2CCCCC[C@@H](C2=O)N(C)C(=O)CN(C)C1=O
OUTPUT: 4.4 nM
